Cited source for all entries: patent US20220025021A1

Listed here: items and their measured IC80 (neutralization in TZM.bl cells).
- Tested On: HIV-1 pseudovirus Ce1176_A3 (HIV-1)
- Method Summary: cell-based or functional assay
Express it in µg/mL; write the number only.

Before answering, review these 2 worked examples.
MS-77 (antibody, V domains shown) VH: QVQLVQSGPEVRKPGTSVKVSCKAPGNTFKTYDLHWVRSVPGQGLQWMGWISHEGDKKVIVERFKAKVTIDWDRSTNTAYLQLSGLTSGDTAVYYCAKGSKHRLRDYALYDDDGALNWAVDVDYLSNLEFWGQGTAVTVSS VL: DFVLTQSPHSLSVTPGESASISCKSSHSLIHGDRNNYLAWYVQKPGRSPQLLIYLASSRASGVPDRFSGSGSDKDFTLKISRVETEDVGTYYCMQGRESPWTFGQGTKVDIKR :: 1.12
MS-74 (antibody, V domains shown) VH: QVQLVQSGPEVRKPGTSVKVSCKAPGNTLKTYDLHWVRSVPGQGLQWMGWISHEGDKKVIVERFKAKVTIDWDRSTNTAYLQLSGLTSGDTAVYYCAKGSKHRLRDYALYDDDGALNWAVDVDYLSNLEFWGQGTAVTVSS VL: DFVLTQSPHSLSVTPGESASISCKSSHSLIHGDRNNYLAWYVQKPGRSPQLLIYLASSRASGVPDRFSGSGSDKDFTLKISRVETEDVGVYYCMQGRESPWTFGQGTKVDIKR :: 0.564

Shifting focus to the binder that follows.
Would you mind telling me what IC80 (neutralization in TZM.bl cells) value was observed for MS-85 (antibody, V domains shown) VH: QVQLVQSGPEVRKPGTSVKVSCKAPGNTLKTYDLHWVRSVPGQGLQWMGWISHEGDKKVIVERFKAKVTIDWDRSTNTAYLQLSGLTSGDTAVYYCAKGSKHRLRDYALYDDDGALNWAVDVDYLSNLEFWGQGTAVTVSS VL: DIVLTQSPHSLSVTPGESASISCKSSHSLIHGDRNNYLAWYVQKPGRSPQLLIYLASSRASGVPDRFSGSGSGTDFTLKISRVETEDVGTYYCMQGRESPWTFGQGTKVDIKR ?
1.72
